System: Jurkat cells
Assay: Jurkat cell cytotoxicity counterscreen
Assay type: cell-based
Conditions: Jurkat cytotoxicity assay
pIC50: −log10 of the molar value.
reported endpoint: pIC50

Query: What reported pIC50 corresponds to `O=C(Cn1cc(C(=O)C(=O)N2CCOCC2)c2ccccc21)Nc1cccc(C(F)(F)F)c1` on Jurkat cells?
Result: < 4.08

----------
Biological target: UniProtKB Q38C91
Sequence (Q38C91 1-773): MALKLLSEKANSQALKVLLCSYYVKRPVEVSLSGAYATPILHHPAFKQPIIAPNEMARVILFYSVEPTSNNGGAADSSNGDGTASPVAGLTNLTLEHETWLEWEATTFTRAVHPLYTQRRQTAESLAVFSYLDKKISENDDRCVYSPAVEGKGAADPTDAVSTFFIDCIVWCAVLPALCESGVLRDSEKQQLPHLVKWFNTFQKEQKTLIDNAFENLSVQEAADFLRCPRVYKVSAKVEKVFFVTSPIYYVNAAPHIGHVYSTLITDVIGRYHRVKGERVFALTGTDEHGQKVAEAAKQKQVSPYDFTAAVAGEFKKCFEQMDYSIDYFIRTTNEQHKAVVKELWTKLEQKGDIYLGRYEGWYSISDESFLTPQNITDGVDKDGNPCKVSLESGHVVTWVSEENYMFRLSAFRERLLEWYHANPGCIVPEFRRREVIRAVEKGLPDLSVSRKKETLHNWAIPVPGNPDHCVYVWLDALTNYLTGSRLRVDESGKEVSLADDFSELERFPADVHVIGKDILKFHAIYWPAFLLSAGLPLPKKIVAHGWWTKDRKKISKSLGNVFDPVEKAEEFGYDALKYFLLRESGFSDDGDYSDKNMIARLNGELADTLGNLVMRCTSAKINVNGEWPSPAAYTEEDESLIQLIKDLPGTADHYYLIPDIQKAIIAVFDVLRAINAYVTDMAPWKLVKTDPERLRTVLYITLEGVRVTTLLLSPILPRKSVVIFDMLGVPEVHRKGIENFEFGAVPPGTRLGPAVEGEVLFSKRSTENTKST
Experiment: Luminescence
Format: biochemical
reported endpoint: IC50 (nM)
One number for each entry, in nM.

Query: Consider the compound Oc1cc(NCCCNCc2cc(Cl)cc(Cl)c2)nc2ccccc12 [CID 18353708, reference compound] and give its measured IC50.
Result: 24.2
